The origin of these recorded values is ChEMBL document CHEMBL6127060.

tested on: Hepatitis C virus; assay: Antiviral activity against Hepatitis C virus; assay type: functional, organism-based, Hepacivirus hominis
Endpoint Label: EC50 (µM)
# unit: µM | format: bare number

Query: Specify EC50 for CC1CCC(C(=O)N(C)c2ccc(Oc3ccccc3C(F)(F)F)cc2C(=O)O)CC1 (stereo unspecified) and stop.
Response: 1.1

====

test: Cytotoxicity against human Huh-7 cells assessed as cell viability; type: toxicity, cell-based
# CC50 listing for each entry below

Query: Specify CC50 for N/C(=N\O)C(Cc1ccccc1)N(Cc1cccc(F)c1)C(=O)c1ccc(Cl)cc1Cl (configuration not stated) and stop.
Response: > 50 µM

Query: Specify CC50 for N/C(=N\O)C(Cc1ccccc1)N(Cc1cccc(C(F)(F)F)c1)C(=O)c1ccc(Cl)cc1Cl (configuration not stated) and stop.
Response: 11 µM

Query: Specify CC50 for O=C(c1ccc(Cl)cc1Cl)N(Cc1cccc(F)c1)C(Cc1ccccc1)c1noc(=S)[nH]1 (configuration not stated) and stop.
Response: > 50 µM

Query: Specify CC50 for O=C(c1ccc(Cl)cc1Cl)N(Cc1cccc(F)c1)C(Cc1ccccc1)c1noc(=O)[nH]1 (configuration not stated) and stop.
Response: > 50 µM

Query: Specify CC50 for N#CC(Cc1ccccc1)N(Cc1cccc(C(F)(F)F)c1)C(=O)c1ccc(Cl)cc1Cl (configuration not stated) and stop.
Response: > 50 µM

Query: Specify CC50 for O=C(c1ccc(Cl)cc1Cl)N(Cc1cccc(Br)c1)C(Cc1ccccc1)c1noc(=O)[nH]1 (configuration not stated) and stop.
Response: > 50 µM

Query: Specify CC50 for N/C(=N\O)C(Cc1ccccc1)N(Cc1cccc([N+](=O)[O-])c1)C(=O)c1ccc(Cl)cc1Cl (configuration not stated) and stop.
Response: 18.2 µM

====

# CC50 listing for each entry below
experiment: Cytotoxicity against human Huh-7 cells assessed as cell viability; type: toxicity, cell-based

Query: Specify CC50 for Cn1c(C(Cc2ccccc2)N(Cc2cccc(C(F)(F)F)c2)C(=O)c2ccc(Cl)cc2Cl)noc1=S (centres undefined) and stop.
Response: > 50 µM

Query: Specify CC50 for O=C(c1ccc(Cl)cc1Cl)N(Cc1cccc(C(F)(F)F)c1)C(Cc1ccccc1)c1noc(=S)[nH]1 (centres undefined) and stop.
Response: > 50 µM

Query: Specify CC50 for O=C(c1ccc(Cl)cc1Cl)N(Cc1cccc(C(F)(F)F)c1)C(Cc1ccccc1)c1noc(=O)[nH]1 (centres undefined) and stop.
Response: 49.2 µM

Query: Specify CC50 for N#CC(Cc1ccccc1)N(Cc1cccc([N+](=O)[O-])c1)C(=O)c1ccc(Cl)cc1Cl (centres undefined) and stop.
Response: > 50 µM

Query: Specify CC50 for N#CC(Cc1ccccc1)N(Cc1cccc(Br)c1)C(=O)c1ccc(Cl)cc1Cl (centres undefined) and stop.
Response: > 50 µM

Query: Specify CC50 for N#CC(Cc1ccccc1)N(Cc1cccc(F)c1)C(=O)c1ccc(Cl)cc1Cl (centres undefined) and stop.
Response: > 50 µM

Query: Specify CC50 for N/C(=N\O)C(Cc1ccccc1)N(Cc1cccc(Br)c1)C(=O)c1ccc(Cl)cc1Cl (centres undefined) and stop.
Response: 16.1 µM

Query: Specify CC50 for O=C(c1ccc(Cl)cc1Cl)N(Cc1cccc(Br)c1)C(Cc1ccccc1)c1noc(=S)[nH]1 (centres undefined) and stop.
Response: > 50 µM

Query: Specify CC50 for CC1=CC[C@H](C(=O)N(c2cc(C#CC(C)(C)C)sc2C(=O)O)[C@H]2CC[C@](O)(CO[C@H]3CCOC3)CC2)CC1 [RADALBUVIR] and stop.
Response: > 50 µM
